Origin of the recorded values: ChEMBL document CHEMBL4888484

System: Plasmodium falciparum
procedure_text: Confirmatory screen in NF54 pLDH assay, in single point, at 2uM, 72h
Format: functional, Erythrocyte
test_conditions: timepoint 72 hour
Screen size: about 4,800 compounds; about 410 (8.5%) showed an effect of 50% or more. For the sample, strong results were picked, then their nearest neighbours and some compounds at random.
experimental_endpoint: % Inhibition

Value of % Inhibition reported for the molecule Cn1ncn(CC(=O)c2cccc(Cl)c2Cl)c1=O is -14%

Reported % Inhibition ( CS(=O)(=O)n1cnc2cc(F)c(F)cc21 ) = -8%

Note to self: % Inhibition recorded for CC(C)(C)OC(=O)NS(=O)(=O)NCc1ccccc1 was 4%

Lab note: measured % Inhibition of Cc1ccc(S(=O)(=O)N2CC[C@H](CC(=O)NCc3ccccc3)C2)c(C)c1 was -22%

// sample Cc1nc2ccc(Cl)cc2c(-c2ccccc2)c1C1=NN(S(C)(=O)=O)[C@H](c2ccccc2Cl)C1 , its % Inhibition was -14%

Noted for CC(C)NC(=O)N1C[C@H]2CCCC(=O)N(Cc3cccc(F)c3)[C@H]2C1 : its % Inhibition reads 8%

Per the record, Cn1n[n+](CC(=O)Nc2ccccc2Cl)c2ccccc21 has % Inhibition of 3%

Lab note: O=C1OC2(c3ccccc31)C(c1ccccc1)CC(=O)N2Cc1ccccc1 (stereo not given) gave % Inhibition of -21%

Short answer for CC(=O)Nc1ccc(C)cc1S(=O)(=O)N1CC=C(c2c(C)n(Cc3ccccc3C)c3ccccc23)CC1 : % Inhibition was 90%

Data point: Cc1ccc(S(=O)(=O)Nc2cccc(-c3csc(C)n3)c2)cc1 ; % Inhibition = 10%

----------
Test system: Plasmodium falciparum
procedure_text: Confirmatory screen in NF54 pLDH assay, in single point, at 2uM, 72h
Type: functional, Erythrocyte
test_conditions: timepoint 72 hour
Hit rate of the full screen: of about 4,800 compounds, about 410 (8.5%) showed an effect of 50% or more. This is one part of a sample in which strong results are shown more often than they occur.
Would you kindly list % Inhibition for each of these molecules?
# output: number + unit

Notebook: Cc1ccc(S(=O)(=O)c2c(NS(=O)(=O)c3ccccc3)n(CCc3ccccc3)c3nc4ccccc4nc23)cc1 , % Inhibition read as 102%

// % Inhibition lookup, molecule = Cc1ccc(S(=O)(=O)Nc2cc3nc4ccccc4nc3n2CCc2ccccc2)cc1 , result: 97%

Reported % Inhibition of Cc1ncsc1[C@@H]1CC(=O)Nc2nc(N3CCC(C)CC3)nc(O)c21 : -19%

The recorded % Inhibition for COc1ccccc1-n1c(=O)n(C2CCCC2)c(=O)c2c1ncn2Cc1ccccc1Cl is 34%

Recorded % Inhibition (molecule CS(=O)(=O)n1c(CCCc2ccccc2)nc2ccccc21 ): 15%

Sample CCn1nccc1C(=O)NC1CCN(c2nnc3ccc(Cl)cn23)CC1 ; % Inhibition observed: 10%

The molecule listed as Cc1cnccc1NCCNC1CCN(c2ccc(Cl)cc2)CC1 shows % Inhibition equal to 96%

molecule O=c1cc(-c2ccccc2)n(S(=O)(=O)c2ccccc2)o1 , % Inhibition observed: -7%

Recorded result, CC(=O)NCCNC(=O)Nc1ccccc1N(C)C1CCCC1 , % Inhibition: -5%

Measured % Inhibition, Cc1cc(NC(=O)Cn2c(=O)n(CCc3ccccc3)c(=O)c3ccccc32)no1 : 13%

----------
Tested on: Plasmodium falciparum
procedure_text: Confirmatory screen in NF54 pLDH assay, in single point, at 2uM, 72h
Format: functional, Erythrocyte
test_conditions: timepoint 72 hour
Screen size: about 4,800 compounds; about 410 (8.5%) showed an effect of 50% or more. Only a selection was taken, and strong results are over-represented in it overall.
Kindly state % Inhibition for each of the entries shown.
// return numeric value only (unit: %, not printed)

Form: compound = CN(Cc1ccsc1)C(=O)c1cc2ccccc2[nH]1 ; % Inhibition = 17

get_value(item= c1cn2cnnc2c(N(CC2CC2)CC2CC2)n1 , readout=% Inhibition) returns -5

Looking up CCOC(=O)c1nc(-c2cccnc2)cs1 , I see its % Inhibition listed as -8

Kindly note the recorded % Inhibition for O=C(COC(F)F)N1CCc2ccncc21 , which is -8

The recorded % Inhibition for entry CCOC(=O)c1ncn(C2CCN(C(=O)c3cccc(Cn4ccnc4)c3)CC2)c1N equals 5

The compound Cc1ccc(C2C(C(=O)N3CCC(C)CC3)CCC(=O)N2C)cc1 (stereo unspecified) showed % Inhibition equal to -1
